These data points were gathered from patent US11608323B2.

Tested on: ECHCG
Experiment: Pre-emergence herbicidal activity, glasshouse pot test
Format: in vivo
Settings: rate 1000 g/Ha, evaluated after 13 days, scale 0-5
OUTCOME MEASURE: ECHCG damage score, application pre-emergence

Solved cases (4 shown):
CC1C(O)N(c2cc(C(C)(C)C)ccn2)C(=O)N1C (single isomer, unassigned) | 5
CC1C(O)N(c2cc(Cl)ccn2)C(=O)N1C (centres unmarked) | 5
Cc1ccnc(N2C(=O)N(C)C(C)C2O)c1 (single isomer, unassigned) | 4
COC[C@H]1C(O)N(c2cc(C(F)(F)F)ccn2)C(=O)N1C (some centres unmarked) | 4

Problem: What does the data say about its ECHCG damage score, application pre-emergence? Entry: C=CC1C(O)N(c2cc(C(F)(F)F)ccn2)C(=O)N1C (centres unmarked)
Solution: 5
